Quick reference for IC50 among some compounds
target: Kras and SOS1 (biotin-tagged human Kras loaded with GDP, His-tagged human SOS1) (Homo sapiens, UniProt P01116, G12D); construct: made in house; host or cells: E. coli (stated for Kras only); test: Protein-protein interaction inhibition between Kras and SOS1 (KrasGl2D-SOS PPI) using AlphaScreen; type: binding; conditions: AlphaScreen; biotin-tagged human Kras loaded with GDP, His-tagged human SOS1; read-out: KRAS G12D-SOS PPI IC50
Sequence (P01116 1-188 isoform P01116-2 G12D): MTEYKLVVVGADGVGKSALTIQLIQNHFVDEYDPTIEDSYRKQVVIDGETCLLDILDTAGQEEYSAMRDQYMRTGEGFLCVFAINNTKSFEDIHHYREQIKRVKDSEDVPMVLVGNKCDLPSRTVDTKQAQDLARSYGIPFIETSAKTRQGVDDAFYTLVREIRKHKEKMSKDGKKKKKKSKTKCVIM
Positions of bridges follow the written chain, without caps; N, C: chain ends. Non-standard residues stand in square brackets, D forms with d. Residues, ends and D or L forms follow the SMILES beside them. *: point of attachment. hPhe(3-Cl-4-CF3) = N[C@@H](CCc1ccc(C(F)(F)F)c(Cl)c1)C(=O)O; Gly(cPent) = N[C@H](C(=O)O)C1CCCC1; NMeCha = CN[C@@H](CC1CCCCC1)C(=O)O; NMeChg = CN[C@H](C(=O)O)C1CCCCC1; NMeD = CN[C@@H](CC(=O)O)C(=O)O; NMeL = CN[C@@H](CC(C)C)C(=O)O; Chg = N[C@H](C(=O)O)C1CCCCC1; NMeV = CN[C@H](C(=O)O)C(C)C; d(β3hA) = C[C@@H](N)CC(=O)O; NMeS = CN[C@@H](CO)C(=O)O; Piperidide = C1CCN(*)CC1; Ac5c = NC1(C(=O)O)CCCC1; Aze = O=C(O)[C@@H]1CCN1; CH2CMe2OH = CC(C)(O)C*; Sar = CNCC(=O)O
Give just the number in nM; leave the unit off.

Example cases with answers are listed next.
compound	measurement
CC(C)C[C@H]1C(=O)N[C@@H](C2CCCC2)C(=O)N(C)CC(=O)N(C)CC(=O)N(C)[C@@H](CC2CCCCC2)C(=O)N(C)CC(=O)N[C@@H](CCc2ccc(C(F)(F)F)c(Cl)c2)C(=O)N2CCC[C@H]2C(=O)NC2(CCCC2)C(=O)N(C)[C@@H](C2CCCCC2)C(=O)N(C)[C@H](C(=O)N2CCCCC2)CC(=O)N1C [Compound 1824] ([NMeL][Gly(cPent)][Sar][Sar][NMeCha][Sar][hPhe(3-Cl-4-CF3)]P[Ac5c][NMeChg][NMeD]-Piperidide; lactam N-11)	0.75
CC[C@H](C)[C@@H]1NC(=O)[C@H](CC(C)C)N(C)C(=O)C[C@@H](C(=O)N2CCCCC2)N(C)C(=O)[C@H](C(C)C)N(C)C(=O)C2(CCCC2)NC(=O)[C@@H]2CCCN2C(=O)[C@H](CCc2ccc(C(F)(F)F)c(Cl)c2)NC(=O)CN(C)C(=O)[C@H](CC2CCCCC2)N(C)C(=O)[C@@H]2CCN2C(=O)[C@H](COCC(C)(C)O)N(C)C1=O [Compound 86] ([NMeL]I[NMeS](CH2CMe2OH)[Aze][NMeCha][Sar][hPhe(3-Cl-4-CF3)]P[Ac5c][NMeV][NMeD]-Piperidide; lactam N-11)	9

Now examine the next entry.
What value of IC50 has been recorded for this entry: CC(C)C[C@H]1C(=O)N[C@@H](C2CCCCC2)C(=O)N(C)CC(=O)N(C)CC(=O)N(C)[C@@H](CC2CCCCC2)C(=O)N(C)CC(=O)N[C@@H](CCc2ccc(C(F)(F)F)c(Cl)c2)C(=O)N2CCC[C@H]2C(=O)NC2(CCCC2)C(=O)N(C)[C@@H](C(C)C)C(=O)N[C@H](C)CC(=O)N1C [Compound 937] (cyclo([Ac5c][NMeV][d(β3hA)][NMeL][Chg][Sar][Sar][NMeCha][Sar][hPhe(3-Cl-4-CF3)]P)) 250
